All figures here come from patent US20160052926A1.

Entries below carry reported pIC50 on UniProt P22607.
Sequence (P22607 23-806): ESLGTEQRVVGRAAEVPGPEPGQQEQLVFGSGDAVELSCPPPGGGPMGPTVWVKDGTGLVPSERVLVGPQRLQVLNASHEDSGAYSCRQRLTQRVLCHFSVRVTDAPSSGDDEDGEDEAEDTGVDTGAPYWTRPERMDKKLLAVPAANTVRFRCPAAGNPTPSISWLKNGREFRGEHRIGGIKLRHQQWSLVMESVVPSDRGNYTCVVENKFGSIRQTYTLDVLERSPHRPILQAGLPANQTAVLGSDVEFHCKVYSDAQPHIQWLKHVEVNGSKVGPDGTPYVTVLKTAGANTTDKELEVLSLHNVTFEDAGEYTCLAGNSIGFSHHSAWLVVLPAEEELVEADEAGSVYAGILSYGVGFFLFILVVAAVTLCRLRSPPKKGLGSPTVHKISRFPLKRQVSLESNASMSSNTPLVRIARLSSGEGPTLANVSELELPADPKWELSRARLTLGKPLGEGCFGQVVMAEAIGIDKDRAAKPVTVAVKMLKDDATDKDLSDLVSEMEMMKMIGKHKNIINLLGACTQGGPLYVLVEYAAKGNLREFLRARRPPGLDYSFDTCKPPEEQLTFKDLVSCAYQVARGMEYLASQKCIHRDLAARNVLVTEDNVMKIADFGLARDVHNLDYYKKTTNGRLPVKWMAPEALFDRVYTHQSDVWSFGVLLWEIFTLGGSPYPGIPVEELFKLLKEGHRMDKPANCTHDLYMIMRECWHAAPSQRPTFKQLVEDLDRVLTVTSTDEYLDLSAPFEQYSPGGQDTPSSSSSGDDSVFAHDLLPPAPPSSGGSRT
pIC50 is defined as minus the log10 of a concentration measured in mol/L.

Query string: Suppose we examine the compound CCn1cc(Nc2ncc(OCc3c(F)c(OC)cc(C(=O)NC)c3F)cn2)cn1 ; what pIC50 value has been reported?
Result string: 7.85

Query string: What do you have for C#Cc1ccc(Nc2ncc(OCc3cc(C(=O)NC)cc(OC)c3F)cn2)cc1 ?
Result string: 6.16

Query string: What do you have for CNC(=O)c1cc(CCc2cnc(Nc3cccc(N4CCOCC4)c3)nc2)c(F)c(OC)c1 ?
Result string: 7.70

Query string: What do you have for CCN1CCN(c2cc(F)cc(Nc3ncc(CCc4cc(OC)cc(C(=O)NOC)c4)cn3)c2)CC1 ?
Result string: 8.40
